# Target System: McpK (PA5072) chemoreceptor ligand binding domain (Pseudomonas aeruginosa)
# Construct: McpK-LBD, Arg38–Ser293
# Sequence (Q9HUB1 38-293): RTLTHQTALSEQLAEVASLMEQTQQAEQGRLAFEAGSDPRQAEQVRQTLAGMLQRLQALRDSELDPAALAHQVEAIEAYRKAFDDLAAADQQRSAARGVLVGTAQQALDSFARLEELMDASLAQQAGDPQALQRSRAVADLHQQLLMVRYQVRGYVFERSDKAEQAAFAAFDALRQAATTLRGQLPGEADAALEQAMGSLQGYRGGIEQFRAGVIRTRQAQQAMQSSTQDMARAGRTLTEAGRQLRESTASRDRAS
# Measurement Protocol: ITC (two symmetric-site cooperative model; Kd1 =[…], Kd2 =[…]); supported by thermal shift (+[…]°C) and AUC dimer stabilization
Observable: pKd
The read-out pKd is expressed as -log10 of concentration in moles per litre.

Q: Find the recorded pKd belonging to O=C(O)CCC(=O)C(=O)O [α-ketoglutarate] and report it.
Result: 4.09

###

# Target System: McpK (PA5072) chemoreceptor ligand binding domain (Pseudomonas aeruginosa)
# Construct: McpK-LBD, Arg38–Ser293
# Set-up: thermal shift assay with SYPRO Orange, Tm change of recombinant McpK-LBD
# Experimental Conditions: binder
Observable: Tm Shift (°C)

Q: Find the recorded Tm Shift (°C) belonging to O=C(O)/C=C/C(=O)O [Fumarate] and report it.
Result: +0.3 °C

Q: Same thing, different compound: CC(=O)O [Acetate]
Result: -0.2 °C

Q: Same thing, different compound: O=c1cc[nH]c(=O)[nH]1 [Uracil]
Result: +4.2 °C

Q: Same thing, different compound: CC(O)C(=O)O (centres unmarked) [Lactate]
Result: +0.2 °C

Q: Same thing, different compound: O=C(O)CC(=O)C(=O)O [Oxaloacetate]
Result: +0 °C

Q: Same thing, different compound: O=C(O)CCC(=O)O [Succinate]
Result: -0.3 °C

Q: Same thing, different compound: NC(=O)OP(=O)(O)O [Carbamyl phosphate]
Result: +3.5 °C

Q: Same thing, different compound: O=C(O)CC(O)(CC(=O)O)C(=O)O [Citrate]
Result: +0.8 °C

Q: Same thing, different compound: NC(=O)CC[C@H](N)C(=O)O [L-Glutamine]
Result: +2.2 °C

Q: Same thing, different compound: CC(=O)C(=O)O [Pyruvate]
Result: +0.1 °C

Q: Same thing, different compound: O=C(O)CC(O)C(=O)O (centres unmarked) [Malate]
Result: +0.5 °C

Q: Same thing, different compound: O=C(O)[C@H]1OC(O)[C@H](O)[C@@H](O)[C@H]1O (stereo partly drawn) [D-Galacturonic acid]
Result: +2.3 °C

Q: Same thing, different compound: N[C@@H](C(=O)O)[C@@H](O)[C@H](O)[C@H](O)CO [D-Glucosaminic acid]
Result: +3.5 °C

Q: Same thing, different compound: COC(=O)C(C)=O [Methyl pyruvate]
Result: +3.3 °C

Q: Same thing, different compound: O=C1O[C@@H]([C@H](O)CO)[C@H](O)[C@H]1O [D-Galactonic acid-γ-lactone]
Result: +2 °C

Q: Same thing, different compound: N[C@@H](CCC(=O)O)C(=O)O [L-Glutamic acid]
Result: +2.3 °C

Q: Same thing, different compound: CCCC(=O)O [Butyrate]
Result: +0.7 °C

Q: Same thing, different compound: C=C(CC(=O)O)C(=O)O [Itaconate]
Result: -2.2 °C

Q: Same thing, different compound: NCCc1ccccc1 [Phenylethylamine]
Result: +3.5 °C

Q: Same thing, different compound: NCCCC(=O)O [γ-Aminobutyric acid]
Result: +4.1 °C

Q: Same thing, different compound: O=C(O)CC(CC(=O)O)C(=O)O [Tricarballylate]
Result: +0.3 °C

Q: Same thing, different compound: O=C(O)CCC(=O)C(=O)O [α-ketoglutarate]
Result: +5.2 °C

Q: Same thing, different compound: NCCCCC(=O)O [5-Aminovaleric acid]
Result: +3.9 °C
